# STUDY SYSTEM: T1, human plasma-derived Factor X zymogen (human, UniProt P00742 41-179; P00742 183-488)
# T1 construct: Plasma-derived, bought (Haematologic Technologies); also called FX; human FX
# T1 sequence (P00742 41-179, chain 1 of 2): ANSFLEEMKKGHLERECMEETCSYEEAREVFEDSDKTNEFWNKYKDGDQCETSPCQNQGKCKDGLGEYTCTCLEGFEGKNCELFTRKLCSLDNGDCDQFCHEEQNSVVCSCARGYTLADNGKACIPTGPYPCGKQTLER
# T1 sequence (P00742 183-488, chain 2 of 2): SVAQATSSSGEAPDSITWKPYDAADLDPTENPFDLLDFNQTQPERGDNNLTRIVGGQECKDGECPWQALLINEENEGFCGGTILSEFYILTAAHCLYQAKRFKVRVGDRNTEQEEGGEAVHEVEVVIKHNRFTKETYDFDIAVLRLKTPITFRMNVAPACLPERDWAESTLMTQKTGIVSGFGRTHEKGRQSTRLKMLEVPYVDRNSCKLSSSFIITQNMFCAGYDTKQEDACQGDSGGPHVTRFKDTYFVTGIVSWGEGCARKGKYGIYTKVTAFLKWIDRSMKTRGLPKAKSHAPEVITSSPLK
# ASSAY NAME: SPR steady state, Nb captured by anti-His mAb, FX injected
MEASURED PROPERTY: pKd
One number for each entry, as −log10 of the molar value.

Example entries begin here.
# BINDER, pKd
rows = [
    ("Nb 701B09 (VHH, monovalent Nanobody; also called Nb 701609; not shown: C-terminal FLAG3 and HIS6 tag) VHH: EVQLVESGGGVVQPGGSLRLSCAASGRTFSTYAMGWFRQAPGKEREFVAAISWSGSRTYYADSVKGRFTISRDNSKNTVYLQMNSLRPEDTALYYCAADATPANGELDYWGQGTLVTVSS", 5.68),
    ("Nb 701C06 (VHH, monovalent Nanobody; not shown: C-terminal FLAG3 and HIS6 tag) VHH: EVQLVESGGGVVQPGGSLRLSCAASGRTFSTYAMGWFRQAPGKEREFVAAISRRGGRTYYADSVKGRFTISRDNSKNTVYLQMNSLRPEDTALYYCAADATARDGLLDYWGQGTLVTVSS", 6.02),
    ("Nb 701D07 (VHH, monovalent Nanobody; not shown: C-terminal FLAG3 and HIS6 tag) VHH: EVQLVESGGGVVQPGGSLRLSCAASGGTLSRYAMGWFRQAPGKEREFVAAITRRGSRTYYADSVKGRFTISRDNSKNTVYLQMNSLRPEDTALYYCAADLAPGDYALDYWGQGTLVTVSS", 5.62),
]

Fill in pKd for record Nb 702C12 (VHH, monovalent Nanobody; not shown: C-terminal FLAG3 and HIS6 tag) VHH: EVQLVESGGGVVQPGGSLRLSCVASGRTFSRYAMGWFRQAPGKEREFVAAISRRGGSTNYADSVKGRFTISRDNSKNTVYLQMNSLRPEDTALYYCAADYSSGDGYLDYWGQGTLVTVSS
5.92
